Reported residual activity is given for each of the following molecules.
Target: UniProt Q9NPD5
Sequence (Q9NPD5 whole entry): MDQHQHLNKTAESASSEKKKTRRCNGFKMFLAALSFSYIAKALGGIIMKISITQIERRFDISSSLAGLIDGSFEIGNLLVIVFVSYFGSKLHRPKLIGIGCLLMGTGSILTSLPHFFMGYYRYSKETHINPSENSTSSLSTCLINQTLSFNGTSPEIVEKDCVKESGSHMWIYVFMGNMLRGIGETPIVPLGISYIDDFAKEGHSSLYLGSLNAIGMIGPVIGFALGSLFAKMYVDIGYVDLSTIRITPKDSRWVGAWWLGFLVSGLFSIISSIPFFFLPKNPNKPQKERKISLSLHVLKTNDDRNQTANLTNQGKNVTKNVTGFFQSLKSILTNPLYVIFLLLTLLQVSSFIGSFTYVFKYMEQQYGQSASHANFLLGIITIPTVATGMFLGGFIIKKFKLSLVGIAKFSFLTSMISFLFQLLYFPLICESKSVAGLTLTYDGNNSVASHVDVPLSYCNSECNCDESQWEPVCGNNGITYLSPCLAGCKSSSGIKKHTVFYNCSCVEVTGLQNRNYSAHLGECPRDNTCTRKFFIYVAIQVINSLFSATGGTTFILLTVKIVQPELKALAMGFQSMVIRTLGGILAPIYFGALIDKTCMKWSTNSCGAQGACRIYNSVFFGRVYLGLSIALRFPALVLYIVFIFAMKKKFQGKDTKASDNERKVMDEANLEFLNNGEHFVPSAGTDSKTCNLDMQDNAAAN
Details: chinese hamster, cho, 10 µM
The answer is to be given in %; state only the numeric part.

- Molecule: "CCCCC1C(=O)N(c2ccccc2)N(c2ccc(O)cc2)C1=O (centres undefined) [OXYPHENBUTAZONE ANHYDROUS]"
  residual activity [%]: 83.15

QUERY: For UniProt Q9NPD5, provide residual activity of COc1ccc([C@@H](C)C(=O)c2ccc(O)cc2O)cc1 [ANGOLENSIN (R)] please.
RESULT: 126.8

QUERY: # query: residual activity | item C/C=C(\C)C(=O)O[C@@H]1[C@@H]2C=C3[C@@H]4CC(=O)O[C@@H](c5ccoc5)[C@]4(C)CC[C@@H]3[C@@](C)(C2=O)[C@@H]([C@@H](O)C(=O)OC)C1(C)C [SWIETENINE] | system: UniProt Q9NPD5
RESULT: 69.9

QUERY: Recorded residual activity for CC(=O)OCC(=O)[C@@]1(O)CC[C@H]2[C@@H]3CCC4=CC(=O)CC[C@]4(C)[C@H]3C(=O)C[C@@]21C [CORTISONE ACETATE] with UniProt Q9NPD5, please?
RESULT: 98.8
